Record: MIC reported on P. vulgaris (13315).
Answers are plain numbers, in µg/mL.

Batch request: MIC for each of the following compounds.
1. C[C@H](C(=O)NCCCNCCCCNCCCN)[C@H]1CC[C@H]2[C@@H]3CC=C4C[C@@H](O)CC[C@]4(C)[C@H]3CC[C@]12C [SM-1]
2. C[C@H](CCC(=O)NCCCNCCCCNCCCN)[C@H]1CC[C@H]2[C@@H]3[C@H](O)C[C@@H]4C[C@H](O)CC[C@]4(C)[C@H]3CC[C@]12C [SM-34]
3. C[C@H](CCC(=O)NCCNCCNCCN)[C@H]1CC[C@H]2[C@@H]3[C@H](O)C[C@@H]4C[C@H](O)CC[C@]4(C)[C@H]3C[C@H](O)[C@]12C [SM-17]
4. C[C@H](CCC(=O)NCCCNCCCCNCCCN)[C@H]1CC[C@H]2[C@@H]3CC[C@@H]4C[C@H](O)CC[C@]4(C)[C@H]3C[C@H](O)[C@]12C [SM-7, deoxycholic acid-spermine conjugate]

[25, 12.5, 50, 3.13]

Batch request: MIC for each of the following compounds.
1. C[C@H](CCC(=O)NCCCNCCCCNCCCN)[C@H]1CC[C@H]2[C@@H]3[C@H](OS(=O)(=O)O)C[C@@H]4C[C@H](OS(=O)(=O)O)CC[C@]4(C)[C@H]3CC[C@]12C [SM-35]
2. C[C@H](CCC(=O)NCCNCCNCCN)[C@H]1CC[C@H]2[C@@H]3CC[C@@H]4CCCC[C@]4(C)[C@H]3CC[C@]12C [SM-21]
3. C[C@H](CCCNCCCCN)[C@H]1CC[C@H]2[C@@H]3CC[C@@H]4C[C@H](O)CC[C@]4(C)[C@H]3C[C@H](O)[C@]12C [SM-9H]

[25, 50, 12.5]

====

Please provide measured MCC at 24 h for the entries that follow.
Assay: Hemolytic activity, minimal hemolytic concentration (MHC);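 note: MCC here is the minimal hemolytic concentration (MHC)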
Format: cell-based, sheep
Settings: sheep, red blood cells
Give bare numbers, in µg/mL.

INSERT INTO results (compound, endpoint_value) VALUES
  ('C[C@H](CCC(=O)NCCCNCCCCNCCCN)[C@H]1CC[C@H]2[C@@H]3[C@H](OS(=O)(=O)O)C[C@@H]4C[C@H](OS(=O)(=O)O)CC[C@]4(C)[C@H]3CC[C@]12C [SM-35]', 6.25);

Batch request: MCC at 24 h for each of the following compounds.
1. C[C@H](CCC(=O)NCCCNCCCCNCCCN)[C@H]1CC[C@H]2[C@@H]3[C@H](O)C[C@@H]4C[C@H](O)CC[C@]4(C)[C@H]3CC[C@]12C [SM-34]
2. C[C@H](CCC(=O)NCCNCCNCCN)[C@H]1CC[C@H]2[C@@H]3CC[C@@H]4C[C@H](O)CC[C@]4(C)[C@H]3C[C@H](O)[C@]12C [SM-11]

1: 25; 2: 25

====

Test system: K. pneumoniae (13883)
Assay: MIC, micro-broth dilution
Assay type: cell-based
Conditions: Klebsiella pneumoniae, 24 h, read-out: ANTIMICROBIAL ACTIVITY (MIC)
Protocol: The antimicrobial activity of the compounds according to the present invention were compared with the results obtained for squalamine as reported in Proc. Nat. Acad. Sci. USA 90:1354 (1993), supra, the disclosure of which is incorporated in toto herein. […] The MIC was determined utilizing known micro-broth dilution methods in which inocula of 10^6 /ml of the test organism were incubated in 0.5× trypticase soy broth at 35° C. for 24 hours. […]
Please provide measured MIC for the entries that follow.

Example cases with answers are listed next.
INSERT INTO assay_data (compound, endpoint_value) VALUES
  ('C[C@H](CCC(=O)NCCCNCCCCNCCCN)[C@H]1CC[C@H]2[C@@H]3CC[C@@H]4C[C@H](O)CC[C@]4(C)[C@H]3CC[C@]12C', '> 100 µg/mL'),
  ('C[C@H](CCC(=O)NCCCNCCCCNCCCN)[C@H]1CC[C@H]2[C@@H]3[C@H](O)C[C@@H]4C[C@H](O)CC[C@]4(C)[C@H]3C[C@H](O)[C@]12C [SM-13, cholic acid-spermine conjugate]', '> 100 µg/mL'),
  ('C[C@H](CCC(=O)NCCCNCCCCNCCCN)[C@H]1CC[C@H]2[C@@H]3CC[C@@H]4C[C@H](OS(=O)(=O)O)CC[C@]4(C)[C@H]3CC[C@]12C', '> 100 µg/mL'),
  ('C[C@H](C(=O)NCCCNCCCCNCCCN)[C@H]1CC[C@H]2[C@@H]3CC=C4C[C@@H](OS(=O)(=O)O)CC[C@]4(C)[C@H]3CC[C@]12C', '12.5 µg/mL'),
  ('C[C@H](CCC(=O)NCCNCCNCCN)[C@H]1CC[C@H]2[C@@H]3C[C@H](O)[C@@H]4C[C@H](O)CC[C@]4(C)[C@H]3CC[C@]12C', '50 µg/mL'),
  ('C[C@H](CCC(=O)NCCNCCNCCN)[C@H]1CC[C@H]2[C@@H]3CC[C@@H]4CCCC[C@]4(C)[C@H]3CC[C@]12C', '> 100 µg/mL'),
  ('C[C@H](CCC(=O)NCCCNCCCCNCCCN)[C@H]1CC[C@H]2[C@@H]3CC[C@@H]4C[C@H](OS(=O)(=O)O)CC[C@]4(C)[C@H]3C[C@H](OS(=O)(=O)O)[C@]12C', '50 µg/mL'),
  ('C[C@H](CCC(=O)NCCNCCNCCN)[C@H]1CC[C@H]2[C@@H]3CC[C@@H]4C[C@H](O)CC[C@]4(C)[C@H]3C[C@H](O)[C@]12C', '12.5 µg/mL');

Batch request: MIC for each of the following compounds.
1. C[C@H](CCCNCCCNCCCCNCCCN)[C@H]1CC[C@H]2[C@@H]3CC[C@@H]4C[C@H](O)CC[C@]4(C)[C@H]3C[C@H](O)[C@]12C
2. C[C@H](CCCNCCCCN)[C@H]1CC[C@H]2[C@@H]3CC[C@@H]4C[C@H](O)CC[C@]4(C)[C@H]3C[C@H](O)[C@]12C
3. C[C@H](CCC(=O)NCCCNCCCCNCCCN)[C@H]1CC[C@H]2[C@@H]3CC[C@@H]4CCCC[C@]4(C)[C@H]3CC[C@]12C
4. C[C@H](CCC(=O)NCCCNCCCCNCCCN)[C@H]1CC[C@H]2[C@@H]3[C@H](OS(=O)(=O)O)C[C@@H]4C[C@H](OS(=O)(=O)O)CC[C@]4(C)[C@H]3CC[C@]12C

1: 12.5 µg/mL; 2: 50 µg/mL; 3: 6.25 µg/mL; 4: 12.5 µg/mL

====

Test: Hemolytic activity, minimal hemolytic concentration (MHC);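 note: MCC here is the minimal hemolytic concentration (MHC)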
Assay type: cell-based, sheep
Settings: sheep, red blood cells
OBSERVABLE: MCC at 24 h (µg/mL)
Give bare numbers, in µg/mL.

Example cases with answers are listed next.
INSERT INTO results (compound, endpoint_value) VALUES
  ('C[C@H](CCCNCCCNCCCCNCCCN)[C@H]1CC[C@H]2[C@@H]3CC[C@@H]4C[C@H](O)CC[C@]4(C)[C@H]3C[C@H](O)[C@]12C [SM-7H]', 50),
  ('C[C@H](CCC(=O)NCCCCN)[C@H]1CC[C@H]2[C@@H]3CC[C@@H]4C[C@H](O)CC[C@]4(C)[C@H]3C[C@H](O)[C@]12C [SM-9]', 50);

Query compound follows.
Consider the compound C[C@H](CCC(=O)NCCCNCCCCNCCCN)[C@H]1CC[C@H]2[C@@H]3CC[C@@H]4CCCC[C@]4(C)[C@H]3CC[C@]12C [SM-19] and give its recorded MCC at 24 h. 6.25

====

Test system: P. vulgaris (13315)
Assay: MIC, micro-broth dilution
Type: cell-based
Conditions: Proteus vulgaris, 35° C., 24 hours, read-out: ANTIMICROBIAL ACTIVITY (MIC)
Please provide measured MIC for the entries that follow.
Numbers only, in µg/mL.

INSERT INTO measurements (structure_notation, endpoint_value) VALUES
  ('C[C@H](CCCNCCCNCCCCNCCCN)[C@H]1CC[C@H]2[C@@H]3CC[C@@H]4C[C@H](O)CC[C@]4(C)[C@H]3C[C@H](O)[C@]12C', 6.25),
  ('C[C@H](CCC(=O)NCCCNCCCCNCCCN)[C@H]1CC[C@H]2[C@@H]3CC[C@@H]4C[C@H](O)CC[C@]4(C)[C@H]3CC[C@]12C', 12.5),
  ('C[C@H](CCC(=O)NCCCCN)[C@H]1CC[C@H]2[C@@H]3CC[C@@H]4C[C@H](O)CC[C@]4(C)[C@H]3C[C@H](O)[C@]12C', 50),
  ('C[C@H](CCC(=O)NCCNCCNCCN)[C@H]1CC[C@H]2[C@@H]3C[C@H](O)[C@@H]4C[C@H](O)CC[C@]4(C)[C@H]3CC[C@]12C', 50),
  ('C[C@H](CCC(=O)NCCNCCNCCN)[C@H]1CC[C@H]2[C@@H]3CC[C@@H]4C[C@H](O)CC[C@]4(C)[C@H]3C[C@H](O)[C@]12C', 25);

Batch request: MIC for each of the following compounds.
1. C[C@H](CCC(=O)NCCCNCCCCNCCCN)[C@H]1CC[C@H]2[C@@H]3CC[C@@H]4C[C@H](OS(=O)(=O)O)CC[C@]4(C)[C@H]3C[C@H](OS(=O)(=O)O)[C@]12C
2. C[C@H](CCC(=O)NCCCNCCCCNCCCN)[C@H]1CC[C@H]2[C@@H]3C[C@H](O)[C@@H]4C[C@H](O)CC[C@]4(C)[C@H]3CC[C@]12C
3. C[C@H](CCC(=O)NCCNCCNCCN)[C@H]1CC[C@H]2[C@@H]3CC[C@@H]4C[C@H](O)CC[C@]4(C)[C@H]3CC[C@]12C

1: 50; 2: 50; 3: 12.5
